Data origin: the supplement of paper PMC9170038

System: MS2 coat protein
TEST_PROTOCOL: apparent KD of MS2 coat protein; higher = weaker reporter binding
STUDY_CONDITIONS: Eterna round: R107; input ligand: theophylline 2 mM
Class 1 (yes): apparent KD of MS2 coat protein at least 60 nM. Class 0 (no): apparent KD of MS2 coat protein below 60 nM.

UCGCUCUGGGUGGAAUCCGGAGAUGUGGAAGGAGCGCUCGAAAGGGCAGGUAGGUCGCCAACGGACAUGAGGAUCACCCAUGUAC [#23 Same State - Arginine A]
0 (no)
AACGUAUACAGAAGGAGCGUGAAUUAUAUUACUCAUUCUUAUACAUGAGGAUCACCCAUGUCACAGGUAGGUCGCUGUAUUCGUA [JR_ExcArginiB_Sub019]
1 (yes)
UAGGACAUGAGGAUCACCCAUGUUGUACGGCGAGGACCGGUACGGCCGCCACUCGAGGCGUAAGUAGUAAAGAAUCUGAUUCAAU [theeternabot_sameState_MS2_Trp_A_4]
0 (no)

Is the recorded value of apparent KD of MS2 coat protein equal to or greater than 60 nM for this sequence? AUAUAUACAUGAGGAUCACCCAUGUUAUUUCGAGGACCGGUACGGCCGCCACUCGAUAGAGUAGAAGUAACAUGUGUUAGUUGAU [JR_SSTryptoA_Sub014]
0 (no)

Is the recorded value of apparent KD of MS2 coat protein equal to or greater than 60 nM for this sequence? CGCGGUUGAGAUGGGCCUUUGAUAAGUCUGCGAGGACCGGUACGGCCGCCACUCGAGGACAUGAGGAUCACCCAUGUACUUCGCG [Atriera]
0 (no)

Is the recorded value of apparent KD of MS2 coat protein equal to or greater than 60 nM for this sequence? AAUAACGUGAGGAUCACCCACGUAAAAGAUACCAGAGUGAUGAUCCUCCCUUGGCAGCUUAACGCUGAUUGAUUACAAUCAGCGA
1 (yes)

Is the recorded value of apparent KD of MS2 coat protein equal to or greater than 60 nM for this sequence? AAUCAUGAAAACAUGACAUGAGGAUCACUCCGAGGACCGGUACGGCCGCCACUCGCGAGGAGGCACAUGAGGAUCACCCAUGUUA [SS Tryp A #1]
1 (yes)

Is the recorded value of apparent KD of MS2 coat protein equal to or greater than 60 nM for this sequence? GGCUAGUGCAUCGAUACCAGCUACAUGAGGAUCACCCAUGUAGGAAGGGUGGCACUCGAUAGCCCUUGGCAGCGAACACCUCCGG [Cebebion]
0 (no)

Is the recorded value of apparent KD of MS2 coat protein equal to or greater than 60 nM for this sequence? UGUACCUGUAUCUGGUCCAUAGUAUAACCUCGAGGACCGGUACGGCCGCCACUCGUCGGACCACAUGAGGAUCACCCAUGUACCG [theeternabot_exclusion_MS2_Trp_A_23]
0 (no)

Is the recorded value of apparent KD of MS2 coat protein equal to or greater than 60 nM for this sequence? UAUCCACAUGAGGAUCACCCAUGUAAGGAAGGAGCGGUGAAUGAACCAGGUAGGUCGCCUUGGUGAGGAUCAUCUAUGGAUUCGU [Exclusion - Arginine A (Freestyle 10)]
0 (no)

Is the recorded value of apparent KD of MS2 coat protein equal to or greater than 60 nM for this sequence? UGUAUGGACUGAAGGAGCGCCUCAAAAUAUCAUGAGGAUCACCCAUGGAAGGCGAAAGCCGGGCAGGUAGGUCGCAGUCCAUACU [ArgBX 3]
0 (no)

Is the recorded value of apparent KD of MS2 coat protein equal to or greater than 60 nM for this sequence? GUAUACAUGAGGAUCACCCAUGUGCCAGAAGGAGCGCUGGAAACGGCAGGUAGGUCGCUGGUAGGUCCUCUAUCUAGACGUUCGG [#17 Exclusion - Arginine A]
1 (yes)
